These measurements were taken from patent US20250270295A1.

Target: T1, gp68_ECD_wt (HCMV strain AD169, UniProt P16739 24-292)
T1 construct: Called 'same antigen as used for immunization'; used as HEK293T supernatant; also called gp68wt extracellular domain
Test: ELISA, coated supernatant
Recorded metric: binding result

{"Binder": "gp68.05 (antibody, V domains shown, mouse IgG1 hybridoma mAb; leader in entries; also called anti gp68 clone 68.05) VH: QVKLEESGAELMKPGASVKISCTATGYTFSGYWIEWVKQRPGHGLEWIGEILPGSGGTNYNEKFKGKATFTADTSSNTAYMQLSSLTSEDSAVYYCARGIHYFGYYYFDYWGQGTTLTVSSAKTTPPSVY VL: DIVLTQTPSSLSASLGDRVTISCRASQDISNYLNWYQLKPDGTVKLLIYYTSRLHSGVPSRFSGSGSGTDYSLTISNLEQEDIATYFCQQGNTLPPTFGGGTKLEIKRADAAPTVS", "Result": "binds"}
{"Binder": "gp68.01 (antibody, V domains shown, mouse IgG1 hybridoma mAb; leader in entries) VH: EVKLLESGPELVKPGSSVKISCKASGYSFADHIILWVKQSHGKSLEWIGNINPYSGNTIYNLNFKGKATLTVDKSSSTAYMQLNSLTSEDSAVYYCARIEGYYSMDYWGQGTSVTVSS VL: DIVMTQTPLSLPVSLGDQASISCRSSQSIVHSNGNTYLEWYLQKPGQSPKVLIYKVSKRFSGVPDRFSGSGSGTDFTLKISRVEAEDMGVYYCFQGSHVPLTFGAGTKLELK", "Result": "binds"}
{"Binder": "gp68.06 (antibody, V domains shown, mouse IgG1 hybridoma mAb; leader in entries; also called anti gp68 clone 68.06) VH: QVKLEQSGAELMKPGASVKISCTATGYTFSGYWIEWVKQRPGHGLEWIGEILPGSGGTNYNEKFKGKATFTADTSSNTAYMQLSSLTSEDSAVYYCARGIHYFGYYYFDYWGQGTTLTVSSAKTTPPSVY VL: DIVLTQSPSSLSASLGDRVTISCRASQDISNYLNWYQLKPDGTVKLLIYYTSRLHSGVPSRFSGSGSGTDYSLTINNLEQEDIATYFCQQGNTLPPTFGGGTKLEIKRADAAPTVS", "Result": "binds"}
